Values from paper PMC9482650

- system: T1, TIAM2, Q8IVF5
- T1 sequence (Q8IVF5 885-986, limits assumed, looked up): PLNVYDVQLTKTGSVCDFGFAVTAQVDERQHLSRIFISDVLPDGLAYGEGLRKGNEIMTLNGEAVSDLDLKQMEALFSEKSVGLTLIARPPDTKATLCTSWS
- experiment-notes: holdup assay
- Design: key: below the threshold = too weak to quantify, mostly under pKd 3.1 to 4
- measurement-parameters: plain residues with an end cap or a label only (N-terminal biotin on a linker: ado-ado)
assay-metric: pKd
# answer = number (no unit)

Quick one: give measured pKd for PYSESDDDWC [CACNA1A, O00555]
4.06

Please supply the value of reported pKd for the item QSGLYESEEL [MYOT, Q9UBF9]
4.19

Give recorded pKd. PPGKHLVTEV [KCNA7, Q96RP8]
4.01

Respond only with pKd recorded for MQHQRTHTRV [ZSCAN30, Q86W11]
3.89

Return reported pKd. Input binder: EDGESWEYQI [TRPV6, Q9H1D0]
3.95
